Just for reference, PubChem BioAssay is where these values come from.

- study-system: Alpha-2C adrenergic receptor (Homo sapiens)
- assay-method-text: compounds altering alpha2C-coupled GIRK flux – cell-based, HEK293 alpha2C/GIRK1/2, thallium flux, primary screen (AID 624);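 further: slope of fluorescence ratio to pre-addition baseline per second over 15 to 24 s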
- assay-conditions: thallium flux BTC fluorescence, at 10 µM, actives lie on both sides
Kind request: treat 0.006 as inclusive, so slope at 0.006 or higher is 1, anything lower is -1.

compound="CCOc1ccc(C2CC(c3cccc(OC)c3)Nc3nc(N)nn32)cc1 (stereo not given)" study_system="Alpha-2C adrenergic receptor (Homo sapiens)" label_class=1
compound="O=C(NCC1COc2ccccc2O1)C1CCCN(S(=O)(=O)c2cnc[nH]2)C1 (stereo not given)" study_system="Alpha-2C adrenergic receptor (Homo sapiens)" label_class=1
compound=C=CCn1c(=O)n(CCOC)c(=O)c2sc3ccccc3c21 study_system="Alpha-2C adrenergic receptor (Homo sapiens)" label_class=1
compound=CCOc1ccc(OCC)c(NC(=O)C2CCN(c3ncccn3)CC2)c1 study_system="Alpha-2C adrenergic receptor (Homo sapiens)" label_class=-1
compound="COCCNC(=O)CC(NS(=O)(=O)c1ccc(NC(C)=O)cc1)C(C)C (stereo not given)" study_system="Alpha-2C adrenergic receptor (Homo sapiens)" label_class=-1

Assess whether reported slope for `COc1ccc(S(=O)(=O)N2CCC(C(=O)NCc3ccco3)CC2)cc1` sits at 0.006 or higher.
-1

Assess whether reported slope for COP(C)(=O)c1c(C)nn(-c2ccccc2)c1C (stereo not given) sits at 0.006 or higher.
1

Assess whether reported slope for `CCN(CC)CCOC(=O)c1ccc(NC(=O)COc2cc(=O)n(CC)c3ccccc23)cc1` sits at 0.006 or higher.
1

Assess whether reported slope for `CCn1ncc(Cl)c1C(=O)Nc1ccncc1` sits at 0.006 or higher.
-1

Assess whether reported slope for `O=S(=O)(NCc1ccccc1)c1ccc2c(c1)OCCO2` sits at 0.006 or higher.
-1

Assess whether reported slope for `CC(=O)Nc1ccc(S(=O)(=O)NCc2csc(-c3cccnc3)n2)cc1` sits at 0.006 or higher.
-1

Assess whether reported slope for O=C(Cn1cnc2c(nnn2Cc2ccc(Cl)cc2)c1=O)NCC1CCCO1 (stereo not given) sits at 0.006 or higher.
-1

Assess whether reported slope for `CN=C(Nc1cc(C)nn1-c1ccccc1)c1ccccc1` sits at 0.006 or higher.
-1

====

Reported inhibition values for the following molecules.
- assay-method-text: TLR3 IRF3 reporter activation blockers – cell-based, poly I:C stimulus, luciferase, 10K MLSCN set, primary screen (AID 602277)
- assay-conditions: HEK293-TLR3 RL24 IRF3 luciferase reporter, at 10 µM, active compounds read high
Give just the number in %; leave the unit off.

// worked examples, inhibition included
molecule=COc1ccc2nc(SCC(=O)NC(C)C)[nH]c2c1 endpoint=inhibition val=-5
molecule=CCN(CC)CCOc1cccc(C(C)C)c1 endpoint=inhibition val=13.5

// `O=C(OCC(=O)N1CCCCCC1)c1cccs1` : inhibition value = -75.3

// `CCOc1ccc(Cc2nn[nH]n2)cc1` : inhibition value = 16.7

// `O=C(c1ccco1)N1CCN(C2=NS(=O)(=O)c3ccccc32)CC1` : inhibition value = 31.2

// C=CCSC1=C(C#N)C(c2ccccc2C)CC(=O)N1 (centres undefined) : inhibition value = -13.9

// `CCC(=O)Nc1c(C#N)c2nc3ccccc3nc2n1-c1ccccc1C` : inhibition value = 21.8
